Just for reference, patent US20140120095A1 is where these values come from.

molecular target: T1, mouse DLL4 expressed on CHO cells (mouse, UniProt Q9JI71 27-686); assay: competition FMAT, labelled hNotch1-Fc on CHO-mDLL4 cells
T1 construct: whole, on cells; also called mDLL4; CHO-mDLL4
T1 sequence (Q9JI71 27-686): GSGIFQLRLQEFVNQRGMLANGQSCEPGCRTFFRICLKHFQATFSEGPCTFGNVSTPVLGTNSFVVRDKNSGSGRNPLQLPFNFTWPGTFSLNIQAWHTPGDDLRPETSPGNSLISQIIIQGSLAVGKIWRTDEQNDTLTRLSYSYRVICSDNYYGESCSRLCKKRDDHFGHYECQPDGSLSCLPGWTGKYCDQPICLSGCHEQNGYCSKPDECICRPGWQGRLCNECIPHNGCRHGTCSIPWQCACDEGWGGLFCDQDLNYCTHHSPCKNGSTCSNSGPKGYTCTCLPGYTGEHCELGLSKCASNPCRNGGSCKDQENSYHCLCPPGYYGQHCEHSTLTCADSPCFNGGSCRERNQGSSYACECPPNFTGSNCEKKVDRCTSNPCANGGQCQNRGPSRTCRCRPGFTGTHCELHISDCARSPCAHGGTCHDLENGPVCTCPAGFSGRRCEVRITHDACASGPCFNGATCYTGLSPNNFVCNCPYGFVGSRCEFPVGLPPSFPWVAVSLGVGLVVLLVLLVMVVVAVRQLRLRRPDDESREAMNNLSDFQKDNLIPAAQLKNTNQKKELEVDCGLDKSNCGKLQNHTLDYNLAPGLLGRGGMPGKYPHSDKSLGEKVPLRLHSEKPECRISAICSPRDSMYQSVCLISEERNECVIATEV
REPORTED METRIC: IC50

Lab book: IC50 of DLLBII136C07 (VHH, not shown: small tags and cut ends) VHH: EVQLVESGGGLVQPGGSLRLSCAASGFTFGSYDMSWVRRSPGKGPEWVSSINSGGGSTYYADYVKGRFTISRDNAKNTLYLQMNSLKPEDTAVYYCAADRYIWARQGEYWGAYEYDYWGQGTQVTVSS noted as 50.8 nM

For this binder ( DLLBII018 (VHH, not shown: small tags and cut ends) VHH: EVQLVESGGGLVQPGGSLRLSCAASGRTFSSYAMAWYRQAPGKEREYVAAIRWSGGTAYYADSVKGRFTISRDNAKNTVYLQMNSLRPEDTAVYYCANRAPDTRLAPYEYDHWGQGTLVTVSS ), measured IC50 is 15.4 nM
